This section presents sequences with their documented RUNX1 binding intensity values.
- TARGET_SYSTEM: RUNX1 (UniProt Q01196)
- Sequence (Q01196 whole entry): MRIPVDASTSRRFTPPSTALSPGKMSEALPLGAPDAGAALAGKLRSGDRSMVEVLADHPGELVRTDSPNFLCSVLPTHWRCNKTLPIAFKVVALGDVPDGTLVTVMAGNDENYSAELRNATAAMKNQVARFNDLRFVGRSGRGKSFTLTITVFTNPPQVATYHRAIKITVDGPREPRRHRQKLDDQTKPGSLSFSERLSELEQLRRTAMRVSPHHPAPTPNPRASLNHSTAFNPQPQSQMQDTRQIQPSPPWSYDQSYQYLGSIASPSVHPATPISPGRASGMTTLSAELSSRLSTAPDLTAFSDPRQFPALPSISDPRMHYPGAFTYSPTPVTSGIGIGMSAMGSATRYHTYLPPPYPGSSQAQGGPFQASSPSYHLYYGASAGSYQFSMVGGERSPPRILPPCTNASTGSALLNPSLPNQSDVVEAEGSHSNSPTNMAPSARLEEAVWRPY
- TEST_DETAILS: RUNX1 binding intensity (PBM fluorescence), RUNX1 alone (arbitrary fluorescence units); higher = stronger binding
- CONDITIONS: RUNX1 concentration 2 nM; ETS1 concentration 0 nM
Form rule: numeric answer, no unit written next to it.

1) TACTAGTTTGGGGCATCCTGTGGTATAGGGGAAGCA; 797
2) GGCCCAGGAAAGAGGCAGGGGTGCGGTTTCCCTCCG; 1060
3) TCGGCGGATATGAAAAAAAGTCCGTGGTCACGTGCA; 730
4) GCGGGGACCCGGATGTGTGTGGTGGCGGCGGCCGAA; 700

Given TTGGAGGCGGAAACAGGCACCGAAAGCGGTGGAAGT , state its recorded RUNX1 binding intensity.
717

GET /values?readout=RUNX1 binding intensity&item= AGGCAAACTACAGGAAGATCCTGCCCGCAACTTGGT
785

----------
- TARGET_SYSTEM: ETS1 (UniProt P14921)
- Sequence: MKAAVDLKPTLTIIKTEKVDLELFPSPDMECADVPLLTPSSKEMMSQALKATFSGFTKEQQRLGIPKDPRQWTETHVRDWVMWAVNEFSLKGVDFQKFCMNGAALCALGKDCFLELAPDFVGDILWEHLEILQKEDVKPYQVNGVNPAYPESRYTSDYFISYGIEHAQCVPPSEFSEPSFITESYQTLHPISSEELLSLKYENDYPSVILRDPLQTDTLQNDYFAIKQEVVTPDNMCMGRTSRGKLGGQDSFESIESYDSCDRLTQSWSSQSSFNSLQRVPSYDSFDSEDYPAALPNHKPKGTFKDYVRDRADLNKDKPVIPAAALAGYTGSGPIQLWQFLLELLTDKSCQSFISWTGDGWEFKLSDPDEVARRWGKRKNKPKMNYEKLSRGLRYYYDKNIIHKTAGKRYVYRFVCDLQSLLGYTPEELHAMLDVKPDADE
- TEST_DETAILS: ETS1 binding intensity (PBM fluorescence) in presence of RUNX1, normalised to ETS1-only experiment (arbitrary fluorescence units); higher = stronger binding
- CONDITIONS: ETS1 concentration 1 nM; RUNX1 concentration 25 nM
Reported ETS1 binding intensity values for a set of sequences
Number only, please.

1) GAAAACTAAGCAGGATGTGGTCTCGGCTGGAGCCTG; 5380
2) CCTCAATTTCCTGGCCAGAGAAACCACTGCCTCTCA; 526
3) GCAAAGATACATCCTTCTCCCCACAGACTAAGTTTC; 412
4) GCGAAAAACGCGGAAATGCGGTGGCGGCGGCCCGCT; 1190
5) ATACATACAGGATGACATTTGTCCTGTGGGCACCAG; 515

For TCCCGAGAGCCGGAAGCAGCCGCAGGCCCCGCCACA , what is its reported ETS1 binding intensity?
4410

Record request: ETS1 binding intensity value, item GCCTGAGCGGAAACCCGGCGCCACCACAAGATGGCA
2040

What ETS1 binding intensity value was documented for this sequence, CATGGTTGTTATTTCCTCACCACAATATGTGACATT ?
463

What does the data say about its ETS1 binding intensity? Entry: CACCTGCCTTGCTTCCTGCGGTGCAACCAGCGGGAG
520

Returns the measured ETS1 binding intensity for the input sequence. Input: TCCTGGCAGAGACCGGAAGTGCGGTCCGCGGAGCGT
43300

What does the data say about its ETS1 binding intensity? Entry: CAGTGGCTTCCTCCCCACCTCCTACCACATTCAATG
467

State the recorded ETS1 binding intensity for this entry: CTTGGCGGAAGTGGTGTGGGGGAGGTAGCCCGCAGT
5600

----------
- TARGET_SYSTEM: ETS1 (UniProt P14921)
- Sequence: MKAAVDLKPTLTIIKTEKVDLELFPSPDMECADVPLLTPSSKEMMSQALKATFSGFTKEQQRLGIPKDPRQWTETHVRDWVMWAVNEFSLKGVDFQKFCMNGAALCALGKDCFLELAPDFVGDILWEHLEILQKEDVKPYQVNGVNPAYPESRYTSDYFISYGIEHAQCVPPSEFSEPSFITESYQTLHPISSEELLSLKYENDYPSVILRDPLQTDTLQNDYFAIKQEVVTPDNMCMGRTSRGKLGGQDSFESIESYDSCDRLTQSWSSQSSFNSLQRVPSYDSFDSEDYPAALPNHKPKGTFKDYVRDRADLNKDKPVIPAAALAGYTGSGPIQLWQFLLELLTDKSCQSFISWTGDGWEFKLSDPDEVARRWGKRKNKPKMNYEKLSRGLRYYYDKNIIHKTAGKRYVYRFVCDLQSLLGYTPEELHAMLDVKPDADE
- TEST_DETAILS: ETS1 binding intensity (PBM fluorescence), ETS1 alone (arbitrary fluorescence units); higher = stronger binding
- CONDITIONS: ETS1 concentration 1 nM; RUNX1 concentration 0 nM
The reader will find reported ETS1 binding intensity values listed item by item below.

Guide cases for ETS1 binding intensity, answers given:
1. GCTGCGCAGAGGAAACCAGGCTTGTTGGTTTTCATG; 432
2. AAGTCAGAGTTTACTTCCGAACCCACAGTGCCAAGC; 423
3. GTAAAAGGAAGTAAAGGCTTGGCCGGGCGCGGTGGC; 569

# input sequence: GGGGCCCCGGATGCACTGAGCGGCTGCGGCGCGGCT ; wanted: its ETS1 binding intensity
613

Endpoint output: ETS1 binding intensity of TCCAGCGGAAGGGGGCATCTTTGCGGCAGAGGCAGC . Value?
470

For ACACTGGCCGGAAGGGGCGGGACCGCGAGTTAAGAG , what is its reported ETS1 binding intensity?
1280

----------
- TARGET_SYSTEM: RUNX1 (UniProt Q01196)
- TEST_DETAILS: RUNX1 binding intensity (PBM fluorescence), RUNX1 alone (arbitrary fluorescence units); higher = stronger binding
- CONDITIONS: RUNX1 concentration 2 nM; ETS1 concentration 0 nM
Outcome label depends on RUNX1 binding intensity relative to 900: at/above gives fulfilled, below gives not fulfilled.

Answered examples (5):
1) AAACCAGAGGAAGTGGATTCCAACCACAAACCTCAC; fulfilled
2) TTTATCATGAATGCAGGATGTGGGCAGACTCACAGC; not fulfilled
3) TGGGGCTCTTCCTGCTTATGTGACCACAGCACCTTG; fulfilled
4) GTGGCGGGGCGGAAGTTCACATGTGTGGTATGTAGA; fulfilled
5) CCTGCAGCAACAGGATGTGGTTTGAAAGGATGAAAG; not fulfilled

// inclusive: RUNX1 binding intensity at least 900? input: AAATCACATACCCGGAAACCACATGCACAGAAGTGG
fulfilled

In plain terms: is recorded RUNX1 binding intensity at least 900 for CCCCTCGCCCTTCCGCATTGCGGGTTACTTCGGTTG ?
fulfilled

Dear colleague, could you confirm whether CACCAGGACGCAACAGGAAACCACAAAGGCCTGAGA has RUNX1 binding intensity at or above 900?
fulfilled

Hi team, for AGATTAGATGCAGGATGTGGTATACAAAGGCACGTT , is the recorded RUNX1 binding intensity at or above 900?
not fulfilled

Check the entry GTTCCTAGGCAGGCAGGATGTGGCTATAAGCTACAT : does RUNX1 binding intensity equal or exceed 900?
not fulfilled

Please indicate if the recorded RUNX1 binding intensity for GCGCTTCCTGCCAGCTTGGAGGATAACCGCCTACCG meets or exceeds 900.
not fulfilled

Quick check: does CAGTGCCAGCCGGAACTTGTGGTTCGGACCGTGGGT have RUNX1 binding intensity greater than or equal to 900?
fulfilled

Confirm if RUNX1 binding intensity reported for the sequence GCCCCCGGCTGGGCAGGATGTGGTGGCAGCTGCAGG is 900 or above.
not fulfilled

Test whether the sequence TTTCCTCGGATTCCCGGATGTGGGTGAGTTCATTTG records RUNX1 binding intensity of 900 or higher.
not fulfilled

State whether the measured RUNX1 binding intensity reaches 900, counting equality as reaching it, for ATTTTAGCATTTTCCTGCTCGGAGACCACATGTTTG
fulfilled

RUNX1 binding intensity >= 900 for CCCTACTCAGGAGGATGTGGTTGGAGAACCCGCTGA ?
not fulfilled

Test whether the sequence GTTTCCACTTCCTGCTGTGCAGCAGTACCACCAAGA records RUNX1 binding intensity of 900 or higher.
fulfilled

----------
- TARGET_SYSTEM: ETS1 (UniProt P14921)
- Sequence: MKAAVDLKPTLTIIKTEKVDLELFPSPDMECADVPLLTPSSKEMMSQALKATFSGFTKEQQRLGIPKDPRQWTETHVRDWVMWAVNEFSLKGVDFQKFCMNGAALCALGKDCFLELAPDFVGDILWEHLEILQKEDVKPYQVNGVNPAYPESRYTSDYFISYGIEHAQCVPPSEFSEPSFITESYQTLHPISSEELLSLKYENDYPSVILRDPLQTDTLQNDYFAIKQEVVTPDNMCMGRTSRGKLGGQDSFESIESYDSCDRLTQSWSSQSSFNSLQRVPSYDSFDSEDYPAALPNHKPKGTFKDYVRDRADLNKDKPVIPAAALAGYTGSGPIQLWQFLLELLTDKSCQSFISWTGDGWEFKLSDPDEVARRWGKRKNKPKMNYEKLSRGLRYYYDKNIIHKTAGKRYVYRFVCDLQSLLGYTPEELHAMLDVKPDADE
- TEST_DETAILS: TF binding intensity (PBM fluorescence), negative control probe (arbitrary fluorescence units); higher = stronger binding
OBSERVABLE: TF binding intensity

Solved entries (count: 3):
1) CTTGACAGAGGTATGTGCTAGGATTGAATATGTGGG (protein concentration 10 nM); 131
2) CTAAATGGCATCTGATGTGGTATCTCTCCTCAGTTC (protein concentration 1 nM); 455
3) GCAACACTCACTCAAACCACAGTAATCAAAAGGCAC (protein concentration 1 nM); 496

# get_value(readout='TF binding intensity', item= TTATGAACTGTATCATGTGGTTTGAGTTTAATTTGG (protein concentration 1 nM) )
487
